- RUN DESCRIPTION: Mean residence time in Sprague-Dawley rat at 2.5 mg/kg, po
- Format: ADME, organism-based
- Parameters: dose 2.5 mg/kg, route oral
- SETUP CONDITIONS: in vivo
RECORDED METRIC: MRT (h)

>>> print(df.to_string())
                              sample_smiles  recorded_metric  data_value
0  CCS(=O)(=O)Nc1cccc(-c2cc(=O)n(-c3ccc(Cl)c(Cl)c3)nc2C)c1              MRT        34.9

====

- RUN DESCRIPTION: Mean residence time in Sprague-Dawley rat at 2.5 mg/kg, iv
- Format: ADME, organism-based
- Set-up: dose 2.5 mg/kg, route intravenous
- SETUP CONDITIONS: in vivo
RECORDED METRIC: MRT (h)

>>> df
                              sample_smiles  data_value
0  CCS(=O)(=O)Nc1cccc(-c2cc(=O)n(-c3ccc(Cl)c(Cl)c3)nc2C)c1        26.9

These entries and their values trace back to ChEMBL document CHEMBL2396586.
